# Test system: Rattus norvegicus
# test.details: Half-maximal effective dose was measured on rat blood glucose after administrating at 4 hr
# Format: functional
# condition.details: Rattus norvegicus, Blood, 4 h; read-out: ED50
readout: ED50 (mg/kg)

{"compound": "COc1ccc(Cl)cc1C(=O)NCCc1ccc(C(=O)O)cc1 [MEGLITINIDE]", "measured.number": 9.4}
{"compound": "CCCC(NC(=O)Cc1ccc(C(=O)O)cc1)c1ccccc1N1CCCCC1 (stereo not drawn)", "measured.number": 0.07}
{"compound": "COc1ccc(Cl)cc1C(=O)NCCc1ccc(S(=O)(=O)NC(=O)NC2CCCCC2)cc1 [GLYBURIDE]", "measured.number": 0.255}
{"compound": "CC(NC(=O)Cc1ccc(C(=O)O)cc1)c1ccccc1N1CCCCC1 (stereo not drawn)", "measured.number": 0.3}
{"compound": "O=C(O)c1ccc(CCNC(=O)c2cc(Cl)ccc2N2CCCCCCCC2)cc1", "measured.number": 0.38}
{"compound": "O=C(Cc1ccc(C(=O)O)cc1)NC(c1ccccc1)c1ccccc1N1CCCCC1 (stereo not drawn)", "measured.number": 0.38}
{"compound": "CC1CC(C)CN(c2ccc(Cl)cc2C(=O)NCCc2ccc(C(=O)O)cc2)C1 (stereo in doubt; 5h)", "measured.number": 0.33}
{"compound": "CCC1=C(C)CN(C(=O)NCCc2ccc(S(=O)(=O)NC(=O)N[C@H]3CC[C@H](C)CC3)cc2)C1=O [GLIMEPIRIDE]", "measured.number": 0.182}
